- target.desc: TRPA1 receptor (Homo sapiens, UniProt O75762);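 note: values above 100 mean more active than the control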
- Construct: expressed in transfected cells; host or cells: HEK cell line
- Sequence (O75762 whole entry): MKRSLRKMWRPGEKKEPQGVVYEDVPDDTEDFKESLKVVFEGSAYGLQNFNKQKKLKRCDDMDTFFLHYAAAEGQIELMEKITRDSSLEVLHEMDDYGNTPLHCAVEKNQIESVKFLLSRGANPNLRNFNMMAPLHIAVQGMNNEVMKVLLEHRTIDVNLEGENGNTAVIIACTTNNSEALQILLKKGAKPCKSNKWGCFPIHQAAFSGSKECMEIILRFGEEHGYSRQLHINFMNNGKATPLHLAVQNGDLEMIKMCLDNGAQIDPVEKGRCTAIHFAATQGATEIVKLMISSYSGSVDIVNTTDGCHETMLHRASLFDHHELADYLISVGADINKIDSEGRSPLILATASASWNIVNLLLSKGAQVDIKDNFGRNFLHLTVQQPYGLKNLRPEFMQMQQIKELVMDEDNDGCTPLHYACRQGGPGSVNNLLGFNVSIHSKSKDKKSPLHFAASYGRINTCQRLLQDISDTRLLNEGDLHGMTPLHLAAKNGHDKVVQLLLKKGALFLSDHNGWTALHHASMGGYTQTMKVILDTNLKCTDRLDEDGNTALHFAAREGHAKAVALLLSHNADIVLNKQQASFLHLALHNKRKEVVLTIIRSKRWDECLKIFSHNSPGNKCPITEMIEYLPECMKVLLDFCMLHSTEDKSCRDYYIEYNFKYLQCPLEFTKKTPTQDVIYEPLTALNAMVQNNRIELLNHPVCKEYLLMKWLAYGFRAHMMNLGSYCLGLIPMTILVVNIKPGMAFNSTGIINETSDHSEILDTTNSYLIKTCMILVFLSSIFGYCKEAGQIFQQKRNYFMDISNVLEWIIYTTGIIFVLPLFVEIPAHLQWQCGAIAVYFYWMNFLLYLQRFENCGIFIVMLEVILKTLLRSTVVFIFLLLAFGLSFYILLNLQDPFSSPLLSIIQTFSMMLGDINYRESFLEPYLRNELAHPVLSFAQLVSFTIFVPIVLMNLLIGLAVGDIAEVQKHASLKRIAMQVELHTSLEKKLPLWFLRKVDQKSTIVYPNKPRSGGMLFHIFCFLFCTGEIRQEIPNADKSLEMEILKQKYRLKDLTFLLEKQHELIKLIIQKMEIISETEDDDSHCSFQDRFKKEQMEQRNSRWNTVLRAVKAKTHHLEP
- run.description: cell-based
- Set-up: dose or concentration left out as unconfirmed
- measurement.conditions: HEK293; percentage of the control (allyl isothiocyanate) calcium count; material dissolved in DMSO at 100 micromolar; HEK cells with TRPA1; pre-incubation; read-out: TRPA1 Pre-incubation
Documented activation across a set of compounds
Unit % implied. Number only.

Study these solved cases before continuing.
{"compound": "CCc1cnccn1", "outcome.measure": "activation", "observed.measurement": 49.9}
{"compound": "CC(C)CC(=O)OC1CC2CCC1(C)C2(C)C (stereo not drawn) [Bornyl Isovalerate]", "outcome.measure": "activation", "observed.measurement": 72.5}

input: Item CCCCCC/C=C/CO [Trans-2-Nonen-1-ol] has what recorded activation?
output: 115

input: Next up: Oc1cc(Cl)ccc1Oc1ccc(Cl)cc1Cl [Triclosan, reference compound]
output: -0.05

input: Do the same for CCCCCCOC(C)=O [Hexyl Acetate] please
output: 49.1

input: And what about the compound CC1=C(O)C(=O)OC1C (stereo not drawn) ?
output: 89.1
